Test system: U2OS
Test: Multiplex assay against U2OS
Format: toxicity, cell-based
Conditions: human, 24 h, 10 µM, compound concentration 10 uM, replicate 2
The reader will find reported Total Cell Count values listed item by item below.

| compound | Total Cell Count |
| --- | --- |
| CN1CCC(=C2c3ccccc3CC(=O)c3sccc32)CC1.O=C(O)/C=C/C(=O)O [KETOTIFEN FUMARATE] | 80 |
| O=C(Nc1ccc(Cl)cc1)Nc1cccc(-c2cccc(N3CCCC3)n2)c1 | 81 |
| O=C(Cc1ccc(-c2ccc(OCCN3CCOCC3)cc2)cn1)NCc1ccccc1 | 82 |

----------
Reported Population Tubulin-Different-Phenotype (%) values follow for various compounds
Test system: U2OS
Assay: Multiplex assay against U2OS
Assay type: toxicity, cell-based
Settings: human, 12 h, 10 µM, compound concentration 10 uM, replicate 1
resultType: Population Tubulin-Different-Phenotype (%)

| compound | obsValue |
| --- | --- |
| COc1cccc2cc(-c3nc([C@H]4CC[C@H](C(=O)O)CC4)n4ncnc(N)c34)[nH]c12 [OSI-027] | 27% |
| CCn1c(=O)c(-c2ccc(-c3cncs3)cc2Cl)cc2cnc(Nc3ccc(N4CCN(C)CC4)cc3)nc21 | 84% |
| CCn1cc(-c2ccnc3[nH]c(-c4cccc(CN(C)C)c4)cc23)c(-c2ccc(NC(=O)N(C)C)cc2)n1 [GSK-1070916] | 99% |
| Cl.Oc1ccc2c3c1O[C@H]1c4[nH]c5c(c4C[C@@]4(O)[C@@H](C2)N(CC2CC2)CC[C@]314)C[C@@]1(O)[C@H]2Cc3ccc(O)c4c3[C@@]1(CCN2CC1CC1)[C@H]5O4 | 3% |
| O=C1NC(=O)C(c2cnc3ccccn23)=C1c1cn2c3c(cc(F)cc13)CN(C(=O)N1CCCCC1)CC2 [LY-2090314] | 99% |
| CNC(=O)c1ccc(Nc2nc(OC3CCCC3)c3c(-c4ccc5nc(C)oc5c4)c[nH]c3n2)c(OC)c1 | 90% |
| C=C1/C(=C\C=C2/CCC[C@]3(C)[C@@H]([C@H](C)/C=C/[C@H](C)C(C)C)CC[C@@H]23)C[C@@H](O)C[C@@H]1O [DOXERCALCIFEROL] | 8% |
| CCc1cccc(CC)c1NC(=O)c1nn(C)c2c1CCc1cnc(Nc3ccc(N4CCN(C)CC4)cc3OC)nc1-2 | 95% |
